System: SNB-78 CNS
method_description: NCI tumour cell line growth inhibition, 48 h
Could you please report measured TGI for the items listed next?

I'm curious: which TGI was measured for COC(=O)C(Cc1nc2ccc(Cl)cc2[nH]c1=O)C(=O)C(=O)Nc1ccccc1[N+](=O)[O-] (stereo not given) tested on SNB-78 CNS? > 100 µM

I'm curious: which TGI was measured for CC(=O)NC(CCCN(Cc1ccccc1)C(=O)N(CCCl)N=O)C(=O)NCc1ccccc1 (stereo not given) tested on SNB-78 CNS? > 100 µM

I'm curious: which TGI was measured for CCO[C@@H]1C2C=CC(C2)[C@H]1[N+](=O)[O-] (stereo not given in full) tested on SNB-78 CNS? > 100 µM

I'm curious: which TGI was measured for CC1=NN(C(=O)c2ccc(Cl)cc2)C(=O)/C1=C/c1cccc([N+](=O)[O-])c1 tested on SNB-78 CNS? > 100 µM

I'm curious: which TGI was measured for O=C(O)c1cc2c(s1)C(=O)c1sccc1C2=O tested on SNB-78 CNS? 0.909 µM
